Entries and their IC50 values follow.
- target.or.system: H1047R PIK3CA enzyme (Homo sapiens, UniProt P42336, H1047R)
- Sequence (P42336 whole entry H1047R): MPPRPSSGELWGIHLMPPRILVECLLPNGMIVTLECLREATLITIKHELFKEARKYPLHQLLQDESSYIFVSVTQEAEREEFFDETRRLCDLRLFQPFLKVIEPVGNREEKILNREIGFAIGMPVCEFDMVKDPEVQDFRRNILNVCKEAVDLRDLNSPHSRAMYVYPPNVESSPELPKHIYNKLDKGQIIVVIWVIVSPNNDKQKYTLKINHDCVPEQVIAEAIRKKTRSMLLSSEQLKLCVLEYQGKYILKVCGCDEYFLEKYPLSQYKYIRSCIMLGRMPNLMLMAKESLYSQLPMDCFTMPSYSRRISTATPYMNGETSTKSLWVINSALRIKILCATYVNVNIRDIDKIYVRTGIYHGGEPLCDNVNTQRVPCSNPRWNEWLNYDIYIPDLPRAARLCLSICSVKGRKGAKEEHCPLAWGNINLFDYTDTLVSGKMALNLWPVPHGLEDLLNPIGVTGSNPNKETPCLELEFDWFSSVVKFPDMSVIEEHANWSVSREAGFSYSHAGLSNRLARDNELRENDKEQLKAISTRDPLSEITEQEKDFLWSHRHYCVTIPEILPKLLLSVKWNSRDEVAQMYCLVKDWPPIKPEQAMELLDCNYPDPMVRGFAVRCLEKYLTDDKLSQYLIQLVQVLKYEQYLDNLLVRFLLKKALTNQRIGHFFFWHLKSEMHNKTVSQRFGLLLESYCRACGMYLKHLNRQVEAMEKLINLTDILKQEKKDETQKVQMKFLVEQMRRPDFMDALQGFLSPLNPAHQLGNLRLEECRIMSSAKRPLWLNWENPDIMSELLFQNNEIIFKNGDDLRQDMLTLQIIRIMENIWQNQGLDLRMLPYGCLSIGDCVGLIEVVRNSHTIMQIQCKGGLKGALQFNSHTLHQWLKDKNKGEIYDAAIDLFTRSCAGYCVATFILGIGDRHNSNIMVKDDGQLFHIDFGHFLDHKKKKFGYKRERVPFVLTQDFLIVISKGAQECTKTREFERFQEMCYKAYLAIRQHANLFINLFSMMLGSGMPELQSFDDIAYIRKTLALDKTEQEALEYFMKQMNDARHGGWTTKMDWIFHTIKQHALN
- Sequence (P27986 whole entry partner): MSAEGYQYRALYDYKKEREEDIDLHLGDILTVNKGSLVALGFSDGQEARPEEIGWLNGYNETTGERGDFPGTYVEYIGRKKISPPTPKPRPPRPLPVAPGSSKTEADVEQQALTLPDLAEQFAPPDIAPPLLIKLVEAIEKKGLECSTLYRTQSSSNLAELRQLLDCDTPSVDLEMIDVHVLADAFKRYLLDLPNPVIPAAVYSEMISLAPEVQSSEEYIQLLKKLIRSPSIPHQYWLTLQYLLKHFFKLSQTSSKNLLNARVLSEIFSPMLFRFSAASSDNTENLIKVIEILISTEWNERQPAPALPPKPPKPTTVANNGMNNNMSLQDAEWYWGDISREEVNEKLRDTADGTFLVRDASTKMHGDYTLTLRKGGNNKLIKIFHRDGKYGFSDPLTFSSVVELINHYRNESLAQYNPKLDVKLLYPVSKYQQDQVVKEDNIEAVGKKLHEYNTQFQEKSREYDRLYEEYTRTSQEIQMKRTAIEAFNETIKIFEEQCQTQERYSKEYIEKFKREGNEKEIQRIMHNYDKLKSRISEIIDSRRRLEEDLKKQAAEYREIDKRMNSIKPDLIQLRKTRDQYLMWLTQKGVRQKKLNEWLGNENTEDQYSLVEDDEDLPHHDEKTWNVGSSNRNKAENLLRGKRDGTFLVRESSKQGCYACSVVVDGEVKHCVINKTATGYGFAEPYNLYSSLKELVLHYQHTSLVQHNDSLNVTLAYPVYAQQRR
- protocol: ADP-Glo Biochemical PIK3CA Kinase Assay

// solved cases for IC50 follow
- compound: "N#C[C@H]1C[C@H](c2cc(NC(=O)c3cc(F)cc(C(F)(F)F)c3)c3c(c2)C(=O)N[C@@H]3c2cc(F)ccc2Cl)C1 (single isomer, unassigned)"
  measured.quantity: "IC50"
  obs.value: "100 to 500 nM"
- compound: "O=C(Nc1cccc2c1C(c1cc(F)ccc1Cl)NC2=O)Nc1n[nH]c2ccccc12 (centres unmarked)"
  measured.quantity: "IC50"
  obs.value: "1000 to 10000 nM"
- compound: "Cc1ccccc1[C@@H]1NC(=O)c2nccc(NC(=O)N3C[C@H](C)c4ccccc43)c21 (single isomer, unassigned) [Compound I-302]"
  measured.quantity: "IC50"
  obs.value: "500 to 1000 nM"

Incoming: Recall and state the measured IC50 for O=C(Nc1cc(NC(=O)C2CC2)cc2c1C(c1cc(F)ccc1Cl)NC2=O)c1cc(F)cc(C(F)(F)F)c1 (centres unmarked) .
Outgoing: ≤ 100 nM

Incoming: Recall and state the measured IC50 for O=C(Nc1cc(-c2cscn2)cc2c1C(c1cc(F)ccc1Cl)NC2=O)c1cc(F)cc(C(F)(F)F)c1 (centres unmarked) .
Outgoing: ≤ 100 nM

Incoming: Recall and state the measured IC50 for Cc1ccccc1C1NC(=O)c2cccc(NC(=O)c3noc4ccc(Cl)cc34)c21 (centres unmarked) .
Outgoing: 1000 to 10000 nM

Incoming: Recall and state the measured IC50 for Cc1ccccc1C1NC(=O)c2cc([C@@H](C)NC(=O)OC(C)(C)C)cc(NC(=O)c3csc4ccccc34)c21 (mixture of isomers) .
Outgoing: 100 to 500 nM

Incoming: Recall and state the measured IC50 for O=C1NC(c2cc(F)ccc2Cl)c2c(Nc3cc4ccccn4n3)cc(-c3ccc4ncnn4c3)cc21 (centres unmarked) .
Outgoing: 10000 to 100000 nM
